Tested on: pERK in NCI-H358 cells
EXPERIMENT_NOTES: Cell-based pERK HTRF assay (pERK inhibition in H358 cells)
EXPERIMENTAL_CONDITIONS: Homo sapiens, NCI-H358, 0.5 h, 30 min incubation
pIC50: −log10 of the molar value.
In this section we review reported pIC50 values for a set of compounds.

{"COMPOUND": "C=CC(=O)N1CC[C@@H](N(C)c2nc(OC[C@@H]3C[C@@H](F)CN3CC)nc3c(F)c(-c4ccc(F)c5sc(N)c(C#N)c45)c(C(F)(F)F)cc23)[C@@H]1C", "pIC50": "> 7.00"}
{"COMPOUND": "C=CC(=O)N1CC[C@@H](N(CC)c2nc(OC[C@]34CCCN3C[C@H](OC)C4)nc3c(F)c(-c4ccc(F)c5sc(N)c(C#N)c45)c(Cl)cc23)[C@H]1C", "pIC50": "> 7.00"}
{"COMPOUND": "C=CC(=O)N1CC[C@@H](N(C)c2nc(OC[C@@]34CCCN3C[C@H](F)C4)nc3c(F)c(-c4nc(N)cc(C)c4C(F)(F)F)ccc23)[C@H]1C", "pIC50": "6.00 to 7.00"}
{"COMPOUND": "C=CC(=O)N1CC[C@@H](N(CC)c2nc(OC[C@@]34CCCN3C[C@H](F)C4)nc3c(F)c(-c4ccc(F)c5sc(N)c(C#N)c45)ccc23)[C@@H]1C", "pIC50": "> 7.00"}
{"COMPOUND": "C=CC(=O)N1CC[C@@H](N(CC)c2nc(OC[C@@H]3CCCN3C)nc3cc(-c4ccc(F)c5sc(N)c(C#N)c45)c(F)cc23)[C@H]1C", "pIC50": "> 7.00"}
{"COMPOUND": "CO[C@@H]1C[C@@H](COc2nc(N(C)[C@@H]3CCN(C(=O)/C=C/c4nc(C(C)(F)F)no4)[C@@H]3C)c3cc(C(F)(F)F)c(-c4ccc(F)c5sc(N)c(C#N)c45)c(F)c3n2)N(C)C1", "pIC50": "> 7.00"}
{"COMPOUND": "C=CC(=O)N1CC[C@@H](N(C)c2nc(OC[C@@H]3C[C@@H](OC)CN3C)nc3c(F)c(-c4ccc(F)c5sc(N)c(C#N)c45)c(C(F)(F)F)cc23)[C@H]1C (single isomer, unassigned)", "pIC50": "> 7.00"}
{"COMPOUND": "C=CC(=O)N1CCC(N(CC)c2nc(OC[C@@]34CCCN3C[C@H](F)C4)nc3c(F)c(-c4ccc(F)c5sc(N)c(C#N)c45)c(C(F)(F)F)cc23)[C@H]1CC (stereo partly shown)", "pIC50": "> 7.00"}
{"COMPOUND": "C=CC(=O)N1CCC(N(C)c2nc(OC[C@@H]3CCCN3C3CC3)nc3c(F)c(-c4ccc(F)c5sc(N)c(C#N)c45)c(C(F)(F)F)cc23)[C@H]1C (stereo partly shown)", "pIC50": "6.00 to 7.00"}
{"COMPOUND": "[2H]C1([2H])CN2C[C@H](F)C[C@]2(COc2nc(N(CC)[C@@H]3CCN(C(=O)C=C)[C@@H]3C)c3cc(F)c(-c4ccc(F)c5sc(N)c(C#N)c45)cc3n2)C1", "pIC50": "> 7.00"}

Value source: patent US20260232666A1
